Recorded MFI for the following binders
studyTarget: DLL3 endogenously expressed on NCI-H82 cells (UniProt Q9NYJ7)
Sequence (Q9NYJ7 27-618): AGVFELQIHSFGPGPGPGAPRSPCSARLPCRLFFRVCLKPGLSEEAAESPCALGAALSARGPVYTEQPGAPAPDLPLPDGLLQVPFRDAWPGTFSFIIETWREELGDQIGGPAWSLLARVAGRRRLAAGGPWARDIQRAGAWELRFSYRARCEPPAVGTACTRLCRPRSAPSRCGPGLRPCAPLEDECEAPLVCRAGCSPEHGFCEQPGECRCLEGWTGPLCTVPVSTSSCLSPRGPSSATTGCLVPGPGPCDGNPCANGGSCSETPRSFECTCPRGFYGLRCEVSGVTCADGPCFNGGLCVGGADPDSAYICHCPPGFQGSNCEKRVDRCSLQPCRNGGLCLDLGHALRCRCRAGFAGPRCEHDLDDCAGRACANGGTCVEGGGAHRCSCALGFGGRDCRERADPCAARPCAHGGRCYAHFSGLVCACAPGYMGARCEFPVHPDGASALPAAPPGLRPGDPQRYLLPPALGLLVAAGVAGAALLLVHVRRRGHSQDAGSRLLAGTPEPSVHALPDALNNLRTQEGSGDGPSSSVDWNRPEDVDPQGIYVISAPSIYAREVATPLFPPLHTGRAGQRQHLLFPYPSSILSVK
method: FACS on NCI-H82 cells; antibody 4 nM
Hey, just send me the number, nothing else.

binder	MFI
Hab015VL4VH5a-hFc (scFv, part only; not given: VL-VH linker and human IgG1 Fc, V domains shown, not shown: another chain or arm of the molecule; a dimerising Fc or GST; small tags and cut ends) VL: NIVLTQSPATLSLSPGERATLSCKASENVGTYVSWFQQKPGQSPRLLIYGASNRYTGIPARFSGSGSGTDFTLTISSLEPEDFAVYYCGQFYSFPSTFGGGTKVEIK VH: EVQLVESGGGLVKPGGSLRLSCVASGITFSNFWMNWVRQAPGKGLEWVGQIRLKSDDYATHYAESVKGRFTISREDSKNTVYLQMNSLKTEDTAVYYCTTGYYFDYWGQGTTVTVSS	1030

Query string: Entry Hab006VL1VH4-hFc (scFv, part only; not given: VL-VH linker and human IgG1 Fc, V domains shown, not shown: another chain or arm of the molecule; a dimerising Fc or GST; small tags and cut ends) VL: DIQMTQSPSSLSASVGDRVTITCRATKSISKYLAWYQQKPGKAPKLLIFSGSTLQSGVPSRFSGSGSGTDFTLTISSLQPEDFATYYCQQHHEYPYTFGGGTKVEIK VH: EVQLVQSGAEVKKPGASVKVSCKASGYTFTSYWMHWVRQAPGQRLEWMGVIDPSDSLANYNQEFKGRVTLTVDTSSSTAYMELSSLRSEDTAVYYCARDSTVVAPMDYWGQGTTVTVSS : reported MFI = ?
Result string: 291

Query string: Note, next up: Hab014VL2VH1-hFc (scFv, part only; not given: scFv linker and human IgG1 Fc, V domains shown, not shown: another chain or arm of the molecule; a dimerising Fc or GST; small tags and cut ends) VL: DIQMTQSPSSLSASVGDRVTITCKASEDIYNRLAWYQQKPGKVPKLLISGATSLETGVPSRFSGSGSGKDFTLTISSLQPEDVATYYCQQYWSLPWTFGGGTKVEIK VH: EVQLVQSGAEVKKPGASVKVSCKASGYTFTDYYMNWVRQAPGQRLEWMGDINPNHGDTGYNQKFTGRVTITVDKSASTAYMELSSLRSEDTAVYYCARNFFYYGTTYGWYFDVWGQGTTVTVSS
Result string: 624

Query string: Note, next up: mab009 scFv-hFc (Fc fusion, part only; not given: Linker and human IgG1 Fc, not shown: a dimerising Fc or GST) chain, part: DIVMTQSPATLSVTPGDRVSLSCRASQTISDYLHWYQQRSHESPRLLIKYASQSISGIPSRFSGSGSGSDFTLSINSVEPEDVGVYYCQNGHSFPLTFGAGTKLELKEVQLQQSGTVLARPGASVKMSCKTSGYTFTSYWMHWVKQSPGQGLEWIGTIYPGNSDTRYNQKFKDKAYVTAVTSASTAYMELSSLTNEESAVYYCTRSYDYGDLDYWGQGTTLTVSS
Result string: 737

Query string: Note, next up: Hab015VL4VH1a-hFc (scFv, part only; not given: scFv linker and human IgG1 Fc, V domains shown, not shown: another chain or arm of the molecule; a dimerising Fc or GST; small tags and cut ends) VL: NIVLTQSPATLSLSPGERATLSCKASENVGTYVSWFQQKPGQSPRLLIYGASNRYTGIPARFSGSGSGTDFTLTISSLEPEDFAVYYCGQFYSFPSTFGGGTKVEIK VH: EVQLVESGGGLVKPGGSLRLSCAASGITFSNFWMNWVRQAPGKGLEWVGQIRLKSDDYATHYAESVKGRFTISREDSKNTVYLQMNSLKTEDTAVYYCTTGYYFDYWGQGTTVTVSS
Result string: 1060

Query string: Note, next up: Hab008L1H5-hFc (scFv, part only; not given: VL-VH linker and human IgG1 Fc, V domains shown, not shown: another chain or arm of the molecule; a dimerising Fc or GST; small tags and cut ends) VL: DIQMTQSPSSLSASVGDRVTITCKASQNVGTAVAWYQQKPGKSPKLLIFSASIRYTGVPSRFSGSGSGTDFTLTISSLQPEDFATYYCQQYSSSPYTFGGGTKVEIK VH: EVQLVQSGAEVKKPGASVKVSCKASGYTFTDYYMNWVRRAPGQRLEWMGIINPYNGGTSYNQKFRGRVTITVDKSASTAYMELSSLRSEDTAVYYCSRYDYDYDVEGAMDYWGQGTTVTVSS
Result string: 539

Query string: Note, next up: Hab009VL1aVH1-hFc (Fc fusion, part only; not given: Linker and human IgG1 Fc, not shown: a dimerising Fc or GST) chain, part: DIVMTQSPLSLPVTPGEPASISCRASQTISDYLHWYLQKPGQSPQLLIKYASQSISGVPDRFSGSGSGSDFTLKISRVEAEDVGVYYCQQGHSFPLTFGQGTKLEIKEVQLVQSGAEVKKPGASVKVSCKASGYTFTSYWMHWVRQAPGQRLEWMGTIYPGNSDTRYNQKFKDRVTITADTSASTAYMELSSLRSEDTAVYYCTRSYDYGDLDYWGQGTTVTVSS
Result string: 759

Query string: Note, next up: Hab006VL4VH1-hFc (scFv, part only; not given: scFv linker and human IgG1 Fc, V domains shown, not shown: another chain or arm of the molecule; a dimerising Fc or GST; small tags and cut ends) VL: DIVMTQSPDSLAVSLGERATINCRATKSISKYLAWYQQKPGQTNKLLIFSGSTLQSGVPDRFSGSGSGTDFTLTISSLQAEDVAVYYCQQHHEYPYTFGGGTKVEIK VH: EVQLVQSGAEVKKPGASVKVSCKASGYTFTSYWMHWVRQAPGQRLEWMGVIDPSDSLANYNQEFKGRVTITVDTSASTAYMELSSLRSEDTAVYYCARDSTVVAPMDYWGQGTTVTVSS
Result string: 454

Query string: Note, next up: mab008 scFv-hFc (Fc fusion, part only; not given: linker and human IgG1 Fc, not shown: a dimerising Fc or GST) chain, part: DIVMTQSQKFMSTSVGDRVSITCKASQNVGTAVAWYQQKPGQSPKLLIFSASIRYTGVPDRFTGSGSGTDFTLTISNMQSEDLADYFCQQYSSSPYTFGGGTKLEIKEVQLQQSGPVLVKPGASVKMSCKASGYTFTDYYMNWVKRSHGKSLEWIGIINPYNGGTSYNQKFRGKATLTVDKSSNTAYMELNSLTSEDSAVYYCSRYDYDYDVEGAMDYWGQGTSVTVSS
Result string: 373

Query string: Note, next up: Hab015VL5VH1b-hFc (scFv, part only; not given: VL-VH linker and human IgG1 Fc, V domains shown, not shown: another chain or arm of the molecule; a dimerising Fc or GST; small tags and cut ends) VL: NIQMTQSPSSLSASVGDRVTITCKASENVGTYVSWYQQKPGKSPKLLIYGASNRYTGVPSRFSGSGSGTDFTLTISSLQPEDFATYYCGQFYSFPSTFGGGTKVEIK VH: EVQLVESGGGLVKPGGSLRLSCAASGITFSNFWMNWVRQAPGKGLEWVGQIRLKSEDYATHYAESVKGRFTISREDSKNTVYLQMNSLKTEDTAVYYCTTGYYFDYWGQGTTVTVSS
Result string: 745
